test: Ratio of free drug uptake in liver to plasma of Wistar rat at 100 mg/kg, po administered for 28 days measured 4 hrs post last dosing; type: ADME, organism-based; set-up: dose 100 mg/kg, route oral
measured-metric: Kp uu at 4 h
One number for each entry.

Need Kp uu at 4 h of `O=C(O)c1ccc(NC(=O)[C@H](CC2CCCC2)n2cnc(C(F)(F)F)c2)nc1` , thanks. 10.5

###

assay: Ratio of free drug uptake in pancreas to plasma of dog at 50 mg/kg, po administered for 4 days measured 4 hrs post last dosing; type: ADME, organism-based, Canis lupus familiaris; design: dose 50 mg/kg, route oral
measured-metric: Kp uu at 4 h

Sample `O=C(O)c1ccc(NC(=O)[C@H](CC2CCCC2)n2cnc(C(F)(F)F)c2)nc1` — what was its Kp uu at 4 h? 0.25
